Collected Enzyme Activity Endpoint Assay (purified): Fc values appear next to each entry.
- TARGET OF ASSAY: pooled human IgG (human IgG1, 2, 3 and 4)
METRIC NAME: Enzyme Activity Endpoint Assay (purified): Fc

PROTEIN	MEASURED
PRT-621 (protein) MQITSVWTKGVTPLTPEQFRYNNEDVIHAPYLAHQGWYDITKAFDGKDNLLCGAATAGNMLHWWFDQNKTEIEAYLSKHPEKQKIIFNNQELFDLKAAIDTKDSQTNSQLFNYFRDKAFPNLSARQLGVMPDLVLDMFINGYYLNVFKTQSTDVNRPYQDKDKRGGIFDAVFTRGDQTTLLTARHDLKNKTLNEISQIIKQELSSGRALALSHTYANVSISHVINLWGADFNAEGNLEAIYVTDSDANASIGMKKYFVGINAHGHVAISAKKIEGENIGAQVLGLFTLSSGKDIWQKLSLEHHHHHH	514 ng/µL
PRT-475 (protein) MVTSVWTKGVTPPTNFRKIVDGNIAYYHAPYVANQGWYDITKTFNGKDDLLCGAATAGNMLHWWFDQNKEQIENYLKKHPEKQKINFNGEQMFDVKEAIDTKDSQLDSKLFEYFKEKAFPYLSTKHLGVFPDHVIDMFINGYRLSLTNHGPTPVKRGSKDPRGGIFDAVFTRGDQSKLLTNRHDLKNKTLKEISDLIKQELTEGKALGISHTYANVRINHVINLWGADFDAEGNLEAIYVTDSDSNASIGMKKYFVGVNSNGKVAISAKEIEEDNIGAQVLGLFTLSTGQDIWNQTNLEHHHHHH	413 ng/µL

Data origin: patent US20250027068
